- ASSAY_SYSTEM: T1, tissue plasminogen activator (Alteplase) (UniProt P00750 36-562)
- T1 construct: also called tPA
- T1 sequence (P00750 36-562 limits assumed): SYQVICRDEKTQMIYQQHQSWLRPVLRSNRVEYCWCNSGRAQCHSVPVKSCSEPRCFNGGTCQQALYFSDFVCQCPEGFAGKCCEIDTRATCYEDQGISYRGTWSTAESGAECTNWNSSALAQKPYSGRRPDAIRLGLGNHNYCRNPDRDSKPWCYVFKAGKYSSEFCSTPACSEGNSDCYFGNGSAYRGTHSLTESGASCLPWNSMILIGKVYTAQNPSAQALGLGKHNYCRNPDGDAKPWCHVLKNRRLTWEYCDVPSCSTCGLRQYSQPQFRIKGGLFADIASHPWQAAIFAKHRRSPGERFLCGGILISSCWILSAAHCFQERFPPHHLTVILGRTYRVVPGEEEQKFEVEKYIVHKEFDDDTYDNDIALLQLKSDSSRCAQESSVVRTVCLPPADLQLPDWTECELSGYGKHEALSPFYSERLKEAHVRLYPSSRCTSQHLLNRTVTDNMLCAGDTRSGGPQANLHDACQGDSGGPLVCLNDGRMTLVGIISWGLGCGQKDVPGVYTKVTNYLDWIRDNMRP
- EXPERIMENTAL_DETAILS: SPR, lower end tied to tPA by paragraph 202
pKd: −log10 of the molar value.
OBSERVATION_TYPE: pKd

Any idea what its pKd is? The binder is KD1L17R-KT (designed binder, Both have C-terminal lysine; also called IIa cleaved KD1L17R-VT) GNNAEICLLPLDYGPCRARLLRYYYDRYTQSCRQFLYGGCEGNANNFYTWEACDDACWRIEKVPK 6.52 to 6.70
